FYI, the data here is from ChEMBL document CHEMBL3885881.

Species on record: Rattus norvegicus
Assay: DrugMatrix - Regimen: Daily Repeat
Assay type: toxicity, organism-based, Sprague-Dawley
Design: regimen Daily Repeat, gender Male, age 6-8 weeks
Conditions: in vivo, ip, 0 mg/kg, […], tissue Blood, route intraperitoneal, dose level Control, time 28 day, vehicle 100 % SALINE
Attribute Measured: ABSOLUTE MONOCYTE (cells/µL)
Answer with a number only, understood to be in cells/µL.

Input line: Return ABSOLUTE MONOCYTE for the following substance: CADMIUM DICHLORIDE
Output line: 210

---

Consider the following molecules; for each one, report its CREATININE.
Species on record: Rattus norvegicus
Assay: DrugMatrix - Regimen: Daily Repeat
Assay type: toxicity, organism-based, Sprague-Dawley
Design: regimen Daily Repeat, gender Male, age 6-8 weeks
Settings: in vivo, po, 0 mg/kg, 120 h, tissue Plasma, route oral GAVAGE, dose level Control, time 5 day, vehicle .5 % CMC
Answer with a number only, understood to be in mg/dL.

Input line: Return CREATININE for the following molecule: Clc1ccc2c(c1)C(N1CCNCC1)=Nc1ccccc1O2
Output line: 0.23

Input line: Return CREATININE for the following molecule: OC(CCN1CCCCC1)(c1ccccc1)C1CCCCC1 (stereo not drawn)
Output line: 0.17

Input line: Return CREATININE for the following molecule: Cc1onc(-c2ccccc2)c1-c1ccc(S(N)(=O)=O)cc1
Output line: 0.57

Input line: Return CREATININE for the following molecule: O=[N+]([O-])c1ccccc1
Output line: 0.23

Input line: Return CREATININE for the following molecule: CN1CCC(=C2c3ccccc3C=Cc3ccccc32)CC1
Output line: 0.62

Input line: Return CREATININE for the following molecule: CNC(=C[N+](=O)[O-])NCCSCc1ccc(CN(C)C)o1
Output line: 0.22

Input line: Return CREATININE for the following molecule: O=C1CCC(N2C(=O)c3ccccc3C2=O)C(=O)N1 (stereo not drawn) [THALIDOMIDE]
Output line: 0.58

Input line: Return CREATININE for the following molecule: CO[C@H]1/C=C/O[C@@]2(C)Oc3c(C)c(O)c4c(c3C2=O)C2=NC3(CCN(CC(C)C)CC3)NC2=C(NC(=O)/C(C)=C\C=C\[C@H](C)[C@H](O)[C@@H](C)[C@@H](O)[C@@H](C)[C@H](OC(C)=O)[C@@H]1C)C4=O
Output line: 0.22

---

Organism: Rattus norvegicus
Assay: DrugMatrix - Regimen: Daily Repeat
Format: toxicity, organism-based, Sprague-Dawley
Set-up: regimen Daily Repeat, gender Male, age 6-8 weeks
Settings: in vivo, ip, 2 mg/kg, 120 h, tissue Blood, route intraperitoneal, dose level High, time 5 day, vehicle 100 % SALINE
Attribute Measured: ABSOLUTE EOSINOPHIL (cells/µL)
Answer with a number only, understood to be in cells/µL.

Input line: Return ABSOLUTE EOSINOPHIL for the following substance: CADMIUM DICHLORIDE
Output line: 170

---

Species on record: Rattus norvegicus
Test: DrugMatrix - Regimen: Daily Repeat
Type: toxicity, organism-based, Sprague-Dawley
Parameters: regimen Daily Repeat, gender Male, age 6-8 weeks
Conditions: in vivo, po, 0 mg/kg, 120 h, tissue Plasma, route oral GAVAGE, dose level Control, time 5 day, […]
Consider the following compounds; for each one, report its TOTAL PROTEIN.
Answer with a number only, understood to be in G/DL.

Input line: Return TOTAL PROTEIN for the following compound: COCCOC(=O)C1=C(C)NC(C)=C(C(=O)OC(C)C)C1c1cccc([N+](=O)[O-])c1 (stereo not given) [NIMODIPINE]
Output line: 5.9

Input line: Return TOTAL PROTEIN for the following compound: CC(=O)Nc1ccc(O)cc1 [ACETAMINOPHEN]
Output line: 6.05

Input line: Return TOTAL PROTEIN for the following compound: COc1ccc2[nH]c([S+]([O-])Cc3ncc(C)c(OC)c3C)nc2c1 (stereo not given) [OMEPRAZOLE]
Output line: 5.53

Input line: Return TOTAL PROTEIN for the following compound: CC/C(=C(/CC)c1ccc(O)cc1)c1ccc(O)cc1 [DIETHYLSTILBESTROL]
Output line: 5.67

Input line: Return TOTAL PROTEIN for the following compound: CC(C)(Oc1ccc(C2CCCc3ccccc32)cc1)C(=O)O (stereo not given) [NAFENOPIN]
Output line: 5.82

Input line: Return TOTAL PROTEIN for the following compound: C[C@]12CC[C@@H]3c4ccc(O)cc4CC[C@H]3[C@@H]1CC[C@@H]2O [ESTRADIOL]
Output line: 6

Input line: Return TOTAL PROTEIN for the following compound: CC(=O)Nc1cccc(O)c1 [METACETAMOL]
Output line: 5.92

Input line: Return TOTAL PROTEIN for the following compound: CCCCCCCCc1ccc(O)cc1 [4-OCTYLPHENOL]
Output line: 5.63

Input line: Return TOTAL PROTEIN for the following compound: CC(C)Cc1ccc(C(C)C(=O)O)cc1 (stereo not given) [IBUPROFEN]
Output line: 5.87

Input line: Return TOTAL PROTEIN for the following compound: O=NN(CCCl)C(=O)NCCCl [CARMUSTINE]
Output line: 6.05
